# system-name: adenosine A1 receptor (A1R) (Homo sapiens, UniProt P30542)
# Construct: expressed in transfected cells; host or cells: CHO-K1
# Sequence (P30542 1-326): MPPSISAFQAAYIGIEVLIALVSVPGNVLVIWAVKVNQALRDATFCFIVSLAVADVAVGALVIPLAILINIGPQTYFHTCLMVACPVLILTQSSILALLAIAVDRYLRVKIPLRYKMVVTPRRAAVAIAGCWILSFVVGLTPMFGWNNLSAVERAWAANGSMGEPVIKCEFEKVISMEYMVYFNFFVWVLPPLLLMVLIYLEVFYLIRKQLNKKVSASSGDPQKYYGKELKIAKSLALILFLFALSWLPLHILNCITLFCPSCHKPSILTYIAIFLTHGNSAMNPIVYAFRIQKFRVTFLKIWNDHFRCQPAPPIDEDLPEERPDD
# method-description: Inhibition of the adenosine A1 receptor cAMP signaling pathway in CHO-K1/A1R cells (HTRF)
# Assay type: cell-based
# experimental-setup: CHO-K1/A1R cells, cAMP, forskolin 10 μM, CPA 10 nM
Provide the recorded log10 of IC50 for the entries that follow.
The figures below represent log10 of IC50, where IC50 is stated in nM.

Checklist item: log10 of IC50 tested on adenosine A1 receptor (A1R) (Homo sapiens, UniProt P30542), entry Nc1nnc(-c2ccc3ncccc3c2)c(-c2ccccc2)n1 , value?
1.99

Test system adenosine A1 receptor (A1R) (Homo sapiens, UniProt P30542); read-out log10 of IC50; what value for CCc1ccnc2ccc(-c3nnc(N)nc3-c3ccc(F)cc3)cc12 ?
2.81

# returns recorded log10 of IC50 (system: adenosine A1 receptor (A1R) (Homo sapiens, UniProt P30542)) for Cc1ccnc2ccc(-c3nnc(N)nc3-c3ccc(F)cc3)cc12
2.28

Lab note: need log10 of IC50 for Cc1ncnc2ccc(-c3nnc(N)nc3-c3ccc(F)cc3)cc12 on adenosine A1 receptor (A1R) (Homo sapiens, UniProt P30542), anyone have it?
3.15

Notebook entry, adenosine A1 receptor (A1R) (Homo sapiens, UniProt P30542) assay: log10 of IC50 of Cc1cc(-c2nc(N)nnc2-c2ccc3nccc(C)c3c2)ccn1 = ?
3.52

What value of log10 of IC50 on adenosine A1 receptor (A1R) (Homo sapiens, UniProt P30542) does Cc1ccnc2c(F)cc(-c3nnc(N)nc3-c3ccccc3)cc12 have?
2.21

Record lookup: for adenosine A1 receptor (A1R) (Homo sapiens, UniProt P30542), what log10 of IC50 belongs to Cc1ncnc2ccc(-c3nnc(N)nc3-c3ccccc3)cc12 ?
2.39

Write down the reported log10 of IC50 of Cc1ncnc2c(F)cc(-c3nnc(N)nc3-c3ccc(F)cc3)cc12 , test system: adenosine A1 receptor (A1R) (Homo sapiens, UniProt P30542).
3.51

Param readout = log10 of IC50; param system = adenosine A1 receptor (A1R) (Homo sapiens, UniProt P30542); param query = [2H]C([2H])([2H])c1ccnc2ccc(-c3nnc(N)nc3-c3ccc(F)cc3)cc12 ; response: value
2.00

Please provide the recorded log10 of IC50 for Cc1ccnc2ccc(-c3nnc(N)nc3-c3ccccc3F)cc12 , tested on adenosine A1 receptor (A1R) (Homo sapiens, UniProt P30542).
3.13

API: value(readout= log10 of IC50, system= adenosine A1 receptor (A1R) (Homo sapiens, UniProt P30542), query= Cc1ncnc2c(F)cc(-c3nnc(N)nc3-c3ccccc3)cc12 )
2.97
